I'd be grateful if you could share measured ECL signal for these entries.
# tested on: T1, Recombinant Human DLL4 (R&D Systems Cat#1506-D4/CF) (human, UniProt Q9NR61 27-524)
# T1 construct: Bought recombinant protein; also called delta-like protein 4; Delta-like 4
# experiment description: ECL (Meso Scale Discovery) multispot binding assay, DLL4 immobilised, Fab at 100 nM
Answers are plain numbers.

# get_value(readout='ECL signal', item= Fab VH5-51_IGHD5-18*01>3_IGHJ4*01 G100K/G104T (H:KT) & V3-4_IGLJ1*01 G27A (Fab, V domains shown, Fab expressed in E. coli; Plasmid A adds CH1 with His6 and Flag tags to the heavy chain; Plasmid E adds lambda CL to the light chain; also called G100K/G104T & G27A) VH: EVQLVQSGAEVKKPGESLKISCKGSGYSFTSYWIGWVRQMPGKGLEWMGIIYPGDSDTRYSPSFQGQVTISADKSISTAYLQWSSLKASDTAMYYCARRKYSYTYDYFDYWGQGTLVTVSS VL: QTVVTQEPSFSVSPGGTVTLTCGLSSASVSTSYYPSWYQQTPGQAPRTLIYSTNTRSSGVPDRFSGSILGNKAALTITGAQADDESDYYCVLYMGSGISYVFGTGTKVTVL )
10700

One more binder: Fab VH5-51_IGHD5-18*01>3_IGHJ4*01 G100K/G104T (H:KT) & V3-4_IGLJ1*01 S26A (Fab, V domains shown, Fab expressed in E. coli; Plasmid A adds CH1 with His6 and Flag tags to the heavy chain; Plasmid E adds lambda CL to the light chain; also called G100K/G104T & S26A) VH: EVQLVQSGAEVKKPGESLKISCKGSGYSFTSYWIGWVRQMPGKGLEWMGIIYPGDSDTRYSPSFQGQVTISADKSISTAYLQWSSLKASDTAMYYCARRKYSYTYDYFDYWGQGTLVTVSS VL: QTVVTQEPSFSVSPGGTVTLTCGLSAGSVSTSYYPSWYQQTPGQAPRTLIYSTNTRSSGVPDRFSGSILGNKAALTITGAQADDESDYYCVLYMGSGISYVFGTGTKVTVL
11700

One more binder: Fab VH5-51_IGHD5-18*01>3_IGHJ4*01 G100K/G104T (H:KT) & V3-4_IGLJ1*01 S25A (Fab, V domains shown, Fab expressed in E. coli; Plasmid A adds CH1 with His6 and Flag tags to the heavy chain; Plasmid E adds lambda CL to the light chain; also called G100K/G104T & S25A) VH: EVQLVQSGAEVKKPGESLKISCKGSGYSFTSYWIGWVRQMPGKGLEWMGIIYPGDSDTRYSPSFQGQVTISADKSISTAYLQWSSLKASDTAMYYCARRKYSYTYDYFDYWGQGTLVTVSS VL: QTVVTQEPSFSVSPGGTVTLTCGLASGSVSTSYYPSWYQQTPGQAPRTLIYSTNTRSSGVPDRFSGSILGNKAALTITGAQADDESDYYCVLYMGSGISYVFGTGTKVTVL
10200

One more binder: Fab VH5-51_IGHD5-18*01>3_IGHJ4*01 G100K/G104T (H:KT) & V3-4_IGLJ1*01 G23A (Fab, V domains shown, Fab expressed in E. coli; Plasmid A adds CH1 with His6 and Flag tags to the heavy chain; Plasmid E adds lambda CL to the light chain; also called G100K/G104T & G23A) VH: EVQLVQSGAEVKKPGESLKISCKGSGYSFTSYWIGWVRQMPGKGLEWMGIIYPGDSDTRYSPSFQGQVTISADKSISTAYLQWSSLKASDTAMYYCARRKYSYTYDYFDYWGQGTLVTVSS VL: QTVVTQEPSFSVSPGGTVTLTCALSSGSVSTSYYPSWYQQTPGQAPRTLIYSTNTRSSGVPDRFSGSILGNKAALTITGAQADDESDYYCVLYMGSGISYVFGTGTKVTVL
13500

Next, consider the following binder.
# get_value(readout='ECL signal', item= Fab VH5-51_IGHD5-18*01>3_IGHJ4*01 G100K/G104T (H:KT) & V3-4_IGLJ1*01 S28A (Fab, V domains shown, Fab expressed in E. coli; Plasmid A adds CH1 with His6 and Flag tags to the heavy chain; Plasmid E adds lambda CL to the light chain; also called G100K/G104T & S28A (light chain)) VH: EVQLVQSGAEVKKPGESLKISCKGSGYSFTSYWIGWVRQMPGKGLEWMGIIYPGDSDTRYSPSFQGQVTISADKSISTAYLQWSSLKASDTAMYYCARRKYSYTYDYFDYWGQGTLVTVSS VL: QTVVTQEPSFSVSPGGTVTLTCGLSSGAVSTSYYPSWYQQTPGQAPRTLIYSTNTRSSGVPDRFSGSILGNKAALTITGAQADDESDYYCVLYMGSGISYVFGTGTKVTVL )
11500
